# Test system: S. pneumoniae ATCC 49619
# assay: MIC determination
# Assay type: cell-based
# reported_conditions: Streptococcus pneumoniae, ATCC49619; S. pneumoniae ATCC 49619; read-out: MIC
Please go through the items and note down their MIC.

Hey, can you go through the list below and give me MIC for every item?
1. CSC1O[C@H]([C@H](NC(=O)[C@H]2NC[C@@H]3CC=CCO[C@H]32)[C@H](C)Sc2ccc(-c3cccnc3)cc2)C(O)[C@@H](O)[C@H]1O (stereo partly drawn)
2. CSC1O[C@H]([C@H](NC(=O)[C@H]2NC[C@@H]3C=C(c4ccc(C)cc4)CCO[C@@H]23)[C@H](C)Cl)C(O)[C@@H](O)[C@H]1O (stereo partly drawn)
3. CSC1O[C@H]([C@H](NC(=O)[C@H]2NC[C@@H]3CC(c4ccc(C#N)cc4)=CCO[C@H]32)[C@H](C)Cl)C(O)[C@@H](O)[C@H]1O (stereo partly drawn)

### Response
1. ≤ 0.06 µg/mL
2. 0.25 µg/mL
3. ≤ 0.06 µg/mL

---

# System: E. coli MMX 0121 ΔTolC
# assay: MIC determination
# Type: cell-based
# reported_conditions: Escherichia coli
assay_metric: MIC (µg/mL)
Give bare numbers, in µg/mL.

For orientation, consider the following solved cases.
C=CC1=CCO[C@@H]2[C@H](CN[C@@H]2C(=O)N[C@H]([C@H](C)Cl)[C@H]2OC(SC)[C@H](O)[C@H](O)C2O)C1 (some centres unmarked) [FSA-507041] :: 16
CSC1O[C@H]([C@H](NC(=O)[C@H]2NC[C@@H]3CC(c4ccc(C(F)(F)F)cc4)=CCO[C@H]32)[C@H](C)Cl)C(O)[C@@H](O)[C@H]1O (some centres unmarked) [FSA-507060] :: 16
CSC1O[C@H]([C@H](NC(=O)[C@H]2NC[C@@H]3C=C(c4ccc(C(F)(F)F)cc4)CCO[C@@H]23)[C@H](C)Cl)C(O)[C@@H](O)[C@H]1O (some centres unmarked) [FSA-507053] :: 16

Proceed to the following item.
### Prompt # MIC lookup, item CSC1O[C@H]([C@H](NC(=O)[C@H]2NC[C@@H]3C[C@H]4C[C@H]4CO[C@H]32)[C@H](C)Cl)C(O)C(O)[C@H]1O (stereo in doubt) [FSA-507007]
### Response 8

---

Consider the following compounds; for each one, report its MIC.
# Tested on: E. coli ATCC 25922
# assay: MIC determination
# Type: cell-based
# reported_conditions: Escherichia coli, ATCC25922, E. coli ATCC 25922; read-out: MIC

Previously resolved entries follow.
CSC1O[C@H]([C@H](NC(=O)[C@@H]2[C@@H]3OCC=CC[C@H]3CN2C)[C@H](C)Sc2ccc(-c3cccnc3)cc2)C(O)[C@@H](O)[C@H]1O (stereo partly drawn) [FSA-213064] :: > 64 µg/mL
CSC1O[C@H]([C@H](NC(=O)[C@H]2NC[C@@H]3C=C(c4ccccc4F)CCO[C@@H]23)[C@H](C)Cl)C(O)[C@@H](O)[C@H]1O (stereo partly drawn) [FSA-511073] :: > 64 µg/mL
CSC1O[C@H]([C@H](NC(=O)[C@H]2NC[C@@H]3CC(c4ccc(C)cc4)=CCO[C@H]32)[C@H](C)Cl)C(O)[C@@H](O)[C@H]1O (stereo partly drawn) [FSA-511019] :: > 64 µg/mL
CSC1O[C@H]([C@H](NC(=O)[C@H]2NC[C@@H]3C=CCO[C@@H]23)[C@H](C)Cl)C(O)[C@@H](O)[C@H]1O (stereo partly drawn) [FSA-24039] :: > 32 µg/mL
CSC1O[C@H]([C@H](NC(=O)[C@H]2NC[C@@H]3C[C@H](c4ccc(C#N)cc4)CCO[C@H]32)[C@H](C)Cl)C(O)[C@@H](O)[C@H]1O (stereo partly drawn) [FSA-512081b] :: 128 µg/mL

### Prompt Query the reported MIC for E. coli ATCC 25922; item: CSC1O[C@H]([C@H](NC(=O)[C@H]2NC[C@@H]3CC(F)(F)CCO[C@H]32)[C@H](C)Cl)C(O)[C@@H](O)[C@H]1O (stereo partly drawn) [FSA-24036]
### Response > 64 µg/mL
